Reference source: patent US8916593B2

For EML4-ALK wt v1 in NIH-3T3 cells (Homo sapiens), measured IC50 is reported for the entries below.

For record COc1ccc(F)cc1C(C)Oc1cc(-c2c(C)nn(C)c2C)cnc1N (centres unmarked) the listed IC50 is 33 nM

For record COc1ccc(F)cc1[C@@H](C)Oc1nc(-c2ccc([C@H](C)N)cc2)cnc1N the listed IC50 is 4.5 nM

For record COc1ccc(F)cc1[C@@H](C)Oc1cc(-c2ccnn2C)nnc1N the listed IC50 is 361 nM

For record Cc1n[nH]cc1-c1cnc(N)c(OC(C)c2cc(F)ccc2N2CCCC2=O)n1 (centres unmarked) the listed IC50 is 193 nM

For record Cc1nn([C@H]2CCS(=O)(=O)C2)c(C)c1-c1cnc(N)c(O[C@H](C)c2cc(F)ccc2-n2nccn2)c1 the listed IC50 is 2.54 nM

For record COc1ccc(F)cc1C(C)Oc1nc(-c2cc(S(C)(=O)=O)cnc2OC)cnc1N (centres unmarked) the listed IC50 is 89.3 nM

For record COc1ccc(F)cc1C(C)Oc1cc(-c2cccn(C)c2=O)cnc1N (centres unmarked) the listed IC50 is 904 nM
